List of Ki values.
MEASURED_ON: Human plasma kallikrein (h PK) (Homo sapiens, UniProt P03952)
Sequence (P03952 391-638 limits assumed): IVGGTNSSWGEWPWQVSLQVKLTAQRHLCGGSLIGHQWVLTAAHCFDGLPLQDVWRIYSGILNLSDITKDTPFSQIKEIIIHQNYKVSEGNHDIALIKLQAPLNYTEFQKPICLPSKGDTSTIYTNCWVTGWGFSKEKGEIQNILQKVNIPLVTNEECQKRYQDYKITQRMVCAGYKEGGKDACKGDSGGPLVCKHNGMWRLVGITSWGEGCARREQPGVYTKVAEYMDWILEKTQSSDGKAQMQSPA
Sequence (P03952 20-390 partner limits assumed): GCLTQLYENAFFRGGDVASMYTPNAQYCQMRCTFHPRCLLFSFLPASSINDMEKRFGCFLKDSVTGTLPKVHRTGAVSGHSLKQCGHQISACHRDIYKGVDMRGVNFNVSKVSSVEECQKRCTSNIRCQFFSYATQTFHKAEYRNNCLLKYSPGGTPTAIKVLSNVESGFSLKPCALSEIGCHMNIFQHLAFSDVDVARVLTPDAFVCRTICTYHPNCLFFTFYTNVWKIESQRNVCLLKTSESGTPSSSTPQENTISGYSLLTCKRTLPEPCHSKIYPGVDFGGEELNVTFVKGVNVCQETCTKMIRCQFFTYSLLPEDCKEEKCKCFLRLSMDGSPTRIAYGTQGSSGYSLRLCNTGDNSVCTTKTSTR
TEST_DETAILS: Inhibition of human plasma kallikrein (reference enzyme)
CONDITION_SUMMARY: S2302 substrate
Reply numerically in µM, unit not repeated.

Below, 2 compounds whose answers are already recorded.
COMPOUND	UNITS_LABEL	OBSERVED_RESULT
NCc1ccc(Cl)cc1CNC(=O)[C@@H]1C[C@H](N)CN1C(=O)[C@@H](CC(=O)N1CCCCC1)NS(=O)(=O)Cc1ccccc1 [Compound 2.6]	µM	0.335
CC(=O)N1CCC(N(C)C(=O)C[C@@H](NS(=O)(=O)Cc2ccccc2)C(=O)N2CCC[C@H]2C(=O)NCc2cc(Cl)ccc2CN)CC1 [Compound 2.2]	µM	4.46

Attention now shifts to the item below.
Which Ki value is on record for NCc1ccc(Cl)cc1CNC(=O)[C@@H]1CCN1C(=O)[C@@H](CC(=O)N1CCCCC1)NS(=O)(=O)Cc1ccccc1 [Compound 2.45] ? 1.86

---

Here the recorded pKi is given for each entry.
MEASURED_ON: UniProt P09871
Sequence (P09871 438-688 limits assumed): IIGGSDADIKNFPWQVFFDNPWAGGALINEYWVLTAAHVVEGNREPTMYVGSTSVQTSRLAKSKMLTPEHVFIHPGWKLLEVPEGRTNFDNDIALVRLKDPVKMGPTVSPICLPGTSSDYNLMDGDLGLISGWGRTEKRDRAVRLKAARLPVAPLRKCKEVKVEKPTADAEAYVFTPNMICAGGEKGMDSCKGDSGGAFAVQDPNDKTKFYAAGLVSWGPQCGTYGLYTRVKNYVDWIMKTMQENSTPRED
Sequence (P09871 16-437 partner limits assumed): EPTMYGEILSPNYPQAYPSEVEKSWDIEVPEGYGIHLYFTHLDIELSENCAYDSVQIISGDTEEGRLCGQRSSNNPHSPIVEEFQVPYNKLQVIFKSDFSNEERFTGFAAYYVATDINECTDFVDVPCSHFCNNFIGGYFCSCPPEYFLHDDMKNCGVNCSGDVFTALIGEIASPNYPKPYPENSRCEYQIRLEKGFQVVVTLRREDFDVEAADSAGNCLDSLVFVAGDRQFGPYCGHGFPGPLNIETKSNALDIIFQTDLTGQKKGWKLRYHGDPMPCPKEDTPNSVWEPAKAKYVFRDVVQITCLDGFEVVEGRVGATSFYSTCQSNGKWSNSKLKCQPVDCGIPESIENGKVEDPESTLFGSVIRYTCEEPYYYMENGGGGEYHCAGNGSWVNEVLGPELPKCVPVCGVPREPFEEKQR
pKi: −log10 of the molar value. Structures can show the parent of a compound that is named as a salt.

Please review the following examples before continuing.
COMPOUND	pKi
NCc1ccc(Cl)cc1CNC(=O)[C@@H]1C[C@H](N)CN1C(=O)[C@@H](CC(=O)N1CCNCC1)NS(=O)(=O)Cc1ccccc1	< 4.82
NCc1ccc(Cl)cc1CNC(=O)[C@@H]1CCCN1C(=O)[C@@H](CCC(=O)N1CCOCC1)NS(=O)(=O)Cc1ccccc1 [Compound 2.1, TFA]	< 4.10
NCc1ccc(Cl)cc1CNC(=O)CC[C@@H](NS(=O)(=O)Cc1ccccc1)C(=O)N1CCC[C@H]1C(=O)NCc1cc(Cl)ccc1CN	< 4.10
NCc1ccc(Cl)cc1CNC(=O)[C@@H]1CCCN1C(=O)[C@@H](CC(=O)N1CCCCC1)NS(=O)(=O)Cc1ccccc1	< 4.10

Entry NCc1ccc(Cl)cc1CNC(=O)[C@@H]1CCN1C(=O)[C@@H](CC(=O)N1CCNCC1)NS(=O)(=O)Cc1ccccc1 [Compound 2.50, TFA] : reported pKi = ? < 4.00

// returns reported pKi for input NCc1ccc(Cl)cc1CNC(=O)[C@@H]1CCCN1C(=O)[C@@H](CCC(=O)N1CCOCC1)NC(=O)Cc1ccccc1 < 4.00
